Target: T1, Extracellular domain of human PD1 (huPD1-ECD) (human, UniProt Q15116 25-169, biotinylated in the ligand inhibition assay (sites not given))
T1 construct: Expressed with a hexahistidine tag or as Fc fusion; also called biotinylated PD-1
T1 sequence (Q15116 25-169 limits assumed): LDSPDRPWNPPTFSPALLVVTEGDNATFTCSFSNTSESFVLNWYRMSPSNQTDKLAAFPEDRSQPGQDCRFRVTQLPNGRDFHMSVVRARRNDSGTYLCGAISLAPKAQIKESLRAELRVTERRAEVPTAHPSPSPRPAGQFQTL
Assay: SPR ProteOn, captured mAb, huPD1-ECD analyte
measurement label: koff (s⁻¹)
// units = s⁻¹; emit number, no label

Reference set (2 entries):
PD1B192 (antibody, human IgG2, kappa, V domains shown, IgG2sigma/kappa; VH 43, VL 57; also called PD1H3/PD1L133) VH: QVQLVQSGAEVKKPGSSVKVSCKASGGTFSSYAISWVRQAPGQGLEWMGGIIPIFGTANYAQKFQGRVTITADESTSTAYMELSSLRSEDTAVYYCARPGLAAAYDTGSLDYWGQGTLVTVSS VL: EIVLTQSPATLSLSPGERATLSCRASQSVDSYLAWYQQKPGQAPRLLIHDASNRATGIPARFSGSGSGTDFTLTISSLEPEDFAVYYCQQRNYWPLTFGQGTKVEIKR | 0.0117
PD1B71 (antibody, V domains shown, Tested as IgG2sigma/kappa; also called PD1H108/PH9L3) VH: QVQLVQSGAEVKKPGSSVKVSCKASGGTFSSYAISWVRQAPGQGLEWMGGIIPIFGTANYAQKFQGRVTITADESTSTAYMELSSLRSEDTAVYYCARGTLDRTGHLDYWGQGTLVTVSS VL: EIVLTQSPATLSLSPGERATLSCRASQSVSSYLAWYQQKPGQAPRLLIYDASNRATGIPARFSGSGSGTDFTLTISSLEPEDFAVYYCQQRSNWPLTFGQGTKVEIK | 0.0273

# context switch: different binder, same koff
### Prompt Data request, read-out koff, for PD1B114 (antibody, human IgG2, kappa, V domains shown, IgG2sigma/kappa; also called PD1H24/PH9L3) VH: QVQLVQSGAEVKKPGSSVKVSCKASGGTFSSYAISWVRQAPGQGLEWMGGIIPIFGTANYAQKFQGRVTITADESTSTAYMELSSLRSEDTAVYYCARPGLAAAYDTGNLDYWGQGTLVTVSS VL: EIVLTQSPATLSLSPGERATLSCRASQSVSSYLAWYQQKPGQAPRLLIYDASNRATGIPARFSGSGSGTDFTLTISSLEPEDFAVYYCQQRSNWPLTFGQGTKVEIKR
### Response 0.0279
